test system: IGROV-1; assay: NCI tumour cell line growth inhibition, 48 h
Calls of active or inactive are those of the source. Cut-off read from the data, not from the text of the source: active = GI50 up to about 1.1 µM and inactive = higher.
measurement-kind: GI50

Example entries and their recorded answers appear below.
{"columns": ["compound", "observed-value"],
 "data": [
  ["COC1=CC(=O)C[C@@H](C)[C@]12Oc1c(Cl)c(OC)cc(OC)c1C2=O [GRISEOFULVIN]", "17.4 µM (inactive)"],
  ["CC(=O)OC1CC2CCN3C(=O)c4cc5c(cc4[C@H](C1OC(C)=O)C23)OCO5 (some centres undefined)", "> 100 µM (inactive)"],
  ["Cc1cc(N(C)C)c2ccccc2[n+]1CCCCCCCCCC[n+]1c(C)cc(N(C)C)c2ccccc21.[O-][Cl+3]([O-])([O-])[O-].[O-][Cl+3]([O-])([O-])[O-]", "6.05 µM (inactive)"],
  ["Cc1ccc(S(=O)(=O)c2ccc(C)cc2[N+](=O)[O-])cc1", "> 100 µM (inactive)"],
  ["Cn1ncc2c(Cl)ncnc21", "> 100 µM (inactive)"],
  ["CN1C(=O)C(C(=O)Nc2ccccn2)C2C[C@@]1(C)Oc1ccccc12 (some centres undefined)", "> 100 µM (inactive)"],
  ["Oc1ccc2c(c1)OCC1(O)Cc3cc(O)c(O)cc3C21 (centres undefined)", "39.6 µM (inactive)"],
  ["COc1ccc(C(=C(C#N)C#N)c2ccc(OC)cc2)cc1", "> 100 µM (inactive)"],
  ["CCON=C1C(C)(C)C(C)(C)C(C)(C)C1(C)C", "> 100 µM (inactive)"],
  ["CC(C)C(OC(=O)c1ccc(NCC2=CC(=O)C=CC2=O)cc1)C(C)C", "1.81 µM (inactive)"]
]}

# evaluate next
For the compound COc1cc2cc(C(=O)N3CC(COS(C)(=O)=O)c4c3cc(N)c3ccccc43)[nH]c2c(OC)c1OC (centres undefined) , report GI50.
0.0228 µM (active)

* * *

test system: T47D; experiment: NCI tumour cell line growth inhibition, 48 h
Active and inactive are the calls of the source. Rule as the data show it: active = GI50 up to about 1.1 µM and inactive = higher.
measurement-kind: GI50

Example entries and their recorded answers appear below.
{"columns": ["compound", "measurement-kind", "observed-value"],
 "data": [
  ["COc1cc(C2SCC(=O)N2NC(=O)c2ccc(NC(C)=O)cc2OC)ccc1O (stereo not given)", "GI50", "67.1 µM (inactive)"],
  ["Brc1cccc(C2ON=C(c3ccccc3)N2C23CC4CC(CC(C4)C2)C3)c1 (stereo not given)", "GI50", "> 10 µM (inactive)"],
  ["CCOC(=O)CC[C@H](NC(=O)c1ccc(CNc2nc3cc(C(F)(F)F)ccc3nc2C(=O)OCC)cc1)C(=O)OCC", "GI50", "18.1 µM (inactive)"],
  ["CC(C)(C)OC(=O)c1ccc(NCc2cc(O)ccc2O)cc1", "GI50", "1.61 µM (inactive)"]
]}

# evaluate next
For the compound CCOC(=O)C(=CNC(=S)Nc1c(CC)cccc1CC)C(=O)OCC , report GI50.
> 100 µM (inactive)

* * *

system: RPMI-8226; test: NCI tumour cell line growth inhibition, 48 h
The source made the active and inactive calls. No stated cut-off is given here; in the data, active = GI50 up to about 1.1 µM and inactive = higher.
Bench note: report the call from yes (1) for active, no (0) for inactive

Would you please look over these solved cases?
{"columns": ["compound", "label-value"],
 "data": [
  ["C=C1C(=O)OC2C1C(OC(=O)/C(=C/C)COC(C)=O)CC1(CO1)C1C(OC(=O)/C(=C/C)CO)C=C(C)C21 (stereo not given)", "yes (1)"],
  ["Cc1cn(C2CC(OC(=O)c3ccc(Cl)cc3)C(COC(=O)c3ccc(Cl)cc3)O2)c(=O)[nH]c1=O (stereo not given)", "no (0)"],
  ["O=C(Cc1ccc(F)cc1)NC1=C(Cl)C(=O)c2ccccc2C1=O", "yes (1)"],
  ["Cc1cccc(/N=C/C=C(\\Cl)c2ccc3ccccc3c2)c1", "no (0)"],
  ["Cc1cc2c(c(/C=N/c3ccc(N(C)C)cc3)c1)OC1(C=C2)Oc2ccccc2C(=O)N1C (stereo not given)", "no (0)"]
]}

Could you check what this test reported for COc1cc(C2C(Cl)C(=O)N2c2ccc(Br)cc2)cc(I)c1O (stereo not given) ?
no (0)

Could you check what this test reported for Cc1c(N/C=C(\C#N)C(=O)c2ccc(Cl)cc2)c(=O)n(-c2ccccc2)n1C ?
no (0)

Could you check what this test reported for CCN(CC)c1ccc(/N=N/c2ccc(-c3nc4ccc[n+](C)c4o3)cc2)cc1 ?
no (0)

Could you check what this test reported for COc1cc2c(c(O)c1O)-c1ccc(OC)c(=O)cc1C(NC(C)=O)CC2 (stereo not given) ?
no (0)

Could you check what this test reported for CC(C)N1CC2CC(CN(C(=O)c3ccc(Cl)cc3)C2)C1 ?
no (0)
